All figures here come from PubChem BioAssay (NCATS).

Method: Quantitative High-Throughput drug screen in 47 multiple myeloma cell lines against the NCATS MIPE library collection: RPMI8226_ATCC cell viability assay (AID 1919871); note: potency is the fitted concentration of half-maximal effect; nearly all actives have a fitted effect of over 30% in size
Condition Info: RPMI8226 myeloma viability, CellTiter-Glo ATP luminescence, 48 h; series mostly up to 45.8 µM
Records with an inconclusive call do not appear. Active and inactive are the calls of the source. Calls come from the whole dose curve; as a rule, active = well fitted cell-killing curve with a large enough effect; inconclusive = small, poorly fitted or top-dose-only effect, or effect the other way; inactive = no such curve, though single readings can be large or run the other way.
Potency values by entry

// solved cases for Potency follow
In: Using the record for `C[C@]12CC[C@@H]3c4ccc(O)cc4CC[C@H]3[C@H]1CC[C@H]2O` , state its measured Potency.
Out: 18.7 µM (active)

In: Answer with the recorded Potency for the molecule listed here: `Cc1ccc2nc(NCCN)c3ncc(C)n3c2c1`
Out: 6.62 µM (active)

In: Report measured Potency; entry is `CC[C@]12C=CCN3CC[C@@]4(c5cc([C@@]6(C(=O)OC)C[C@H]7C[C@@H](C(C)(F)F)CN(Cc8c6[nH]c6ccccc86)C7)c(OC)cc5N(C)[C@H]4[C@@](O)(C(=O)OC)[C@H]1OC(C)=O)[C@@H]32`
Out: 0.166 µM (active)

In: Quote Potency reported for `CCCCC(=O)O[C@]1(C(=O)CO)[C@@H](C)C[C@H]2[C@@H]3CCC4=CC(=O)C=C[C@]4(C)[C@@]3(F)[C@@H](O)C[C@@]21C` please.
Out: 0.0118 µM (active)

In: Return value of Potency for input `CCN(CC)CCNC(=O)c1c(C)[nH]c(C=C2C(=O)Nc3ccc(F)cc32)c1C` , no commentary.
Out: 10.8 µM (active)

Further cases:
In: Consider the molecule `CN(C)c1ccc(C(=O)NCCCCCCC(=O)NO)cc1` . State its measured Potency.
Out: 1.87 µM (active)

In: In one line, give reported Potency of the entry `C=C(C)[C@@H]1CC[C@]2(C(=O)O)CC[C@]3(C)[C@H](CC[C@@H]4[C@@]5(C)CC[C@H](O)C(C)(C)[C@@H]5CC[C@]43C)[C@@H]12` .
Out: 5.26 µM (active)

----------
Method: Quantitative High-Throughput drug screen in 47 multiple myeloma cell lines against the NCATS MIPE library collection: KMS28PE_JCRB cell viability assay (AID 1918983); note: nearly all actives have a fitted effect of over 35% in size
Condition Info: KMS28PE multiple myeloma viability, CellTiter-Glo ATP, 48 h; series mostly up to 45.8 µM
Records with an inconclusive call do not appear. Calls of active or inactive are those of the source. The call rests on the fitted dose curve; in most records, active means well fitted cell-killing curve with a large enough effect; inconclusive means small, poorly fitted or top-dose-only effect, or effect the other way; inactive means no such curve, though single readings can be large or run the other way.
Permitted responses: TRUE = active, FALSE = inactive

In: Short answer needed: outcome of this test for `CC(C)N(CC[C@H](c1ccccc1)c1cc(CO)ccc1O)C(C)C` ?
Out: FALSE

In: How was COc1ccc2c(c1OC)C(=O)OC2[C@H]1c2c(cc3c(c2OC)OCO3)CCN1C (some centres undefined) classified in this test?
Out: TRUE

Others:
In: Hey, what did the test say about `C=CCNC1=C2C[C@@H](C)C[C@H](OC)[C@@H](O)[C@@H](C)C=C(C)[C@H](OC(N)=O)[C@@H](OC)C=CC=C(C)C(=O)NC(=CC1=O)C2=O` ?
Out: TRUE

In: Status in this test for `COc1ccc(C=Cc2cc(OC)c(OC)c(OC)c2)cc1NC(=O)[C@H](N)CO` ?
Out: TRUE

In: Recorded test call requested for `O=C(O)C(=O)Nc1cccc(C2=NN=N[N]2)c1`
Out: FALSE

In: Given Nc1ccn(C2CO[C@H](CO)O2)c(=O)n1 (some centres undefined) , state the outcome it received in this test.
Out: FALSE

In: GET /call?item= `C[C@H](NCc1ccc2c(c1)nc(NC(=O)c1ccc(-c3cn[nH]c3)s1)n2CCc1ccccc1)C(C)(C)C` returns the recorded outcome of this test.
Out: TRUE

In: Test call, this compound: C[C@@H]1CC[C@@]2(OC1)OC1CC3C4CC=C5CC(O)CCC5(C)C4CCC3(C)C1[C@@H]2C (some centres undefined)
Out: FALSE

In: How was `O=C(CCCCCCC(=O)Nc1cccnc1)NO` classified in this test?
Out: TRUE
